- EXPERIMENT NOTES: soluble on expression in E. coli; label from the status in PepcDB or PDB records
MEASURED METRIC: soluble on expression in E. coli

- SEQUENCE INPUT: "MHNLVPAPKQTQSVLIKNATVHTVIQGVLTNTDVLIENGKISALGPQLSTNTTASTQVVDASGKHLYPGLIALDTSLGLEHHHHHH"
  MEASURED METRIC: "soluble on expression in E. coli"
  RESULT VALUE: "not soluble"
- SEQUENCE INPUT: "MGSDKIHHHHHHMNEIAEVLPESMKNALSEIPEQQWLEIEEVRIRINRPVELIRRGQPVYLSYAGTAEDAHLILSRLSNYSMYTLEEELKKGYVTIRGGHRVGLAGRVITENGGVKGLRDIASFNIRIARQKLGIAEPLLPYLYQNSWLNTLIIGPPQTGKTTLLRDLARLSSTGKKNMLPVKTGIVDERSEIAGCLRGIPQHQFGQRIDVLDACPKAEGLMMMIRSMSPEVMIVDEIGRMEDTDALLEALHAGVSVIVSAHGWSISDLMKRPSLKRLWEERAFDRYLELSRAKGPGTVSQIYDKDGNVLSRTTGVKTC"
  MEASURED METRIC: "soluble on expression in E. coli"
  RESULT VALUE: "not soluble"
- SEQUENCE INPUT: "MGSDKIHHHHHHMFSIGKHSDFTPSCVSRMLGDLHFVNQGTAMKFSRYFFSLLTTLPLLACTQVEAPVPEALSQSTGHTAGAAQPQESVIGGSLPIGDSSRTSLDWQGSYEGVVPCASCEGIKTRLTLNNDGTYLLQSQYLGKEQDGKEPKVFEEQGKFSWNASGGAIQLENGAWYQVGENQLFMLDREGKRITGVLAGHYRLLKKQSALLPRF"
  MEASURED METRIC: "soluble on expression in E. coli"
  RESULT VALUE: "not soluble"

###

- EXPERIMENT NOTES: soluble on expression in E. coli; label from the status in PepcDB or PDB records

- SEQUENCE INPUT: "MGSDKIHHHHHHMRIAYLSSAYLAPVEYYTKLLEYDKIYVEQHDHYIKQTYRNRCTIAGPDGELALSIPTVKPDTLKCPMKDIRISDHGNWRHLHWNAIESAYNSTPYFEYYKDDFRPFYEKKYEFLADFNEELCQLVCKLIDIQPCIERTSEYKTEFTTEETDFREIIHPKKDFQIADPEFVPHPYYQVFDSKLGFLPNLSIIDLLFNMGPESLLVLTSK"
  soluble on expression in E. coli: "not soluble"
- SEQUENCE INPUT: "MGSDKIHHHHHHMADPQTLDKIIDKTLDTVGKSREQIFEISEQSRNEYVSLEQELQEVRMKVAEIIDQSDRAEVHARFARNRLAEVSKQFHRYSNEEIRKVYEQANELQVKLALLQQEEQQLRDRRDAIERRLLNLKDTIERAEELVGQMTVVYNFLTGDLRQVGEALEDAREKQAFGLQIIQAQEEERRKLSREIHDGPAQMMANVLLRSELVERIYHDKGIDEALKEIRDLRKMVKSSLAEVRRIIYDLRPMALDDLGLIPTLKKYVKTFEEHTGIFVDFKHIGKGERFPEHVEIALFRLVQEALQNTRKHAKASHVHVKIEEQKTKFTVVIKDNGKGFDQTEKKEGSFGLVGMKERVNMLKGQLVIRTKPNDGTTIIISIPITTEE"
  soluble on expression in E. coli: "not soluble"

###

- EXPERIMENT NOTES: soluble on expression in E. coli; label from the status in PepcDB or PDB records
MEASURED METRIC: soluble on expression in E. coli

- SEQUENCE INPUT: "MAHHHHHHMASVPFTEEDLHELYTWVDEIPISRQKRNIARDFADGCSVAEILKFFFPKLVDLHNYVPAMSHAKKLDNWNTLNAKVLRKLYFEVPPEEVEDIVAAVPGAIERFLRALRVKVAQIKARRDEMLRMGEIQAHVNAHHVDPSPSQPQPREGGHVRDGGASAATAHRGSGRPSSPAAPAGPVASSRGSSSAGPQAPPRQTQPQRQPTPPLVNEAASLTQALREKDYTIQELRETVAILSEKIVKLEELVRVKDEKLNQYRQKVGRVPA"
  RESULT VALUE: "soluble"
- SEQUENCE INPUT: "MEGSVSEFLTVRLSSQKEADIPWLVWSAEQQEVIASGQVAGWEALHEIESYADQRSVVVLLAASDLILTSVEIPPGASRQLENMLPYLLEDEIAQDVEDVHFCVLSKGRETADVVGVDRLWLRACLDHLKACGFDVKRVLPDVLAIPRPEHGLAALQLGDEWLVRKSTTQGMAVDAQWLSLLAASDWVQNEGEYLPLQALTPLPELSLAETQEWRYEPSGLVMQLLTQEALTSKFNLLTGSFKLKSLEHHHHHH"
  RESULT VALUE: "soluble"
- SEQUENCE INPUT: "MQTSHSLPSAQLPLFQEAFWASNGAPLLDDVIDSPSSASIEEPAAFSELSLSGLPGHCLTLLAPILRELSEEQDARWLTLIAPPASLTHEWLRRAGLNRERILLLQAKDNAAALALSCEALRLGRSHTVVSWLEPLSRAARKQLSRAAQLGQAQSLNIRLG"
  RESULT VALUE: "soluble"

###

- EXPERIMENT NOTES: soluble on expression in E. coli; label from the status in PepcDB or PDB records
MEASURED METRIC: soluble on expression in E. coli

- SEQUENCE INPUT: "MARLARFWDSLENENLFDIVPQPPKSTVTRFHQQWLSSLANARDDELQTILYAKPLLPTPESIVQLPDEEYYGAKKISVGYR"
  RESULT VALUE: "not soluble"
- SEQUENCE INPUT: "MAHHHHHHMKPEGAKGAVVSDDVGGDSANLAYCSDRITLLSRADIEAFTCCSNGAGGGGASNSENHNGGCGGLASEAQSVDPCSTLDTCIAALPMFLQSEALVLRRHEQQFRHHMKELVELTECITLLCDGSLRQHAAAVAGQPAEQSADAQRAESAALHRMLHRAEELERYVRAAAVERLRSAQRMVLAASTTKRREKVGRKSAVRPPKATK"
  RESULT VALUE: "not soluble"
- SEQUENCE INPUT: "MAHHHHHHMNILHKIFTPGSKSKKTLLHCDAELGDRQSHSSSKVSTAVQVKSKLTAASSDDDDCGPLMRSVSMTVVSDPVPSSFKTNSSFANQSRPTQGPASFKSARLANSFSNASCHLERHHQHTAALASSVSRHNQRSLFDKIHSSGSFAVGETTVSGGSFTANGGTVNLWRLPWTQQKVTMCPNCHRPRQRDRTMQVSRASYTLQETTIENGMGDDMSEANEDMSYSDSEGMGGPMSDSVTCRCGVVSEGDAPLDYDDSAEATEEHPKLFVVETQNPSAVQLPGTIAEASDSEGEGREDVRRSYKLSLVSSPTPTSLRRRAPRVQPLLSGASPQTNTASVPKRVTHWLHEQQTSEARVVLKPKAAR"
  RESULT VALUE: "not soluble"

###

- EXPERIMENT NOTES: soluble on expression in E. coli; label from the status in PepcDB or PDB records
MEASURED METRIC: soluble on expression in E. coli

- SEQUENCE INPUT: "VPWEDVFKSFDPNPLAAGTIAQVHRATLETGDRVVVKVQRPTARADIEQDLALFEMFAEKVGKRPALNQVINMEDVFKHLSTSLHRELDFRQEANNIERMRTVLADYDRLAVPSIHWDLS"
  RESULT VALUE: "not soluble"
- SEQUENCE INPUT: "VYWLNWTDRTRKFTIYNDIIERSLLTLKMMSFYNGAVLASLTTSLPEAVGEVRNWDYRFCWLRDASMSIETLFKIGHADATRKFMKFIQSTFVAEHDTYQIMYGIRGERKLTEVILDHLSGYKNSQPVRIGNDAYHQRQNDSFGYLMDLIYQYYRLMPGTLDEIEDMWEMVKSIMTTVMEDWRKPDKGIWEIRGEGQHFVSSKVMCWVALDRGARIARILNKYENSRRWEEEADAIKADVMRNGWKEEIQSFSQAYGNLDLDSSLLLMEPYGFIDADDIRYHKTVKAVKQSLLHKGLMYRYNTHDDFGCPSSAFTICTFWLIRALYVIGEKDEARCLFDEILQYSNHLGLFSEDIDFETKEQLGNFPQAYSHLALVNTAVLFAE"
  RESULT VALUE: "not soluble"
- SEQUENCE INPUT: "MFFKQFYEDNFSQASYLIGCQRTGEAMIIDPIRDLTKYLKVADKEGFTITKAAETHIHADFASGIRDVANKLNASIYVSDEGKDEFNYKNMPKQTHFVKHQDIIYLGKIKLEVLHTPGHPPESISFLLTDEGGGSSIPMGLFSGDFIFVGDVGRPDLLEKAVNVEGSTKIGAKQMYQSIQFAATLPDYIQIWPGHGAGSPCGKALGSLPTTTLGYEKINNWAFNVKDETSFIETLTLNQPAPPHHFSQMKKINQFGMQMYQPYNVYPSSSNTQTAFDLRSKEAFHGGHMHGTINIPFNKTFINQIGWYLDYDLEHHHHHH"
  RESULT VALUE: "soluble"
- SEQUENCE INPUT: "MTTIGTRKRVAVVTGASSGIGEATARTLAAQGFHVVAVARRADRITALANQIGGTAIVADVTDDAAVEALARALSRVDVLVNNAGGAKGLQFVADADLEHWRWMWDTNVLGTLRVTRALLPKLIDSGDGLIVTVTSIAAIEVYDGGAGYTAAKHAQGALHRTLRGELLGKPVRLTEIAPGAVETEFSLVRFDGDQQRADAVYAGMTPLVAADVAEVIGFVATRPSHVNLDQIVIRPRDQASASRRATHPVR"
  RESULT VALUE: "not soluble"
- SEQUENCE INPUT: "MSLDRNEMLEFAAKLHSHLSPGVALGIKMAQIAYEKLGVNFRGKGLVGIAETAMCLPDALQVVAGTTPGNRNLIVKDYGKLALAIVRFDTREGYRVTIKKEAAKKSELIKKFLYRLGKLNKEEEKRLAEEFLNLEPEYFEVREIRLTIPVGGTKEPIVECEKCGELQPSDYVAEVDGRMVCFMCAGKGYFEEGGSHHHHHH"
  RESULT VALUE: "soluble"
- SEQUENCE INPUT: "SAASGEEDMSELSPAAAPNLDWYEKPEETHAPEVDLETVIPPAQEPSNPAEPFCPRDLVPVVFPGPVSQEDCCQFTCELLKHILYQRHQLPLPYEQLKHFYRKAPQAEDTARKKAWLATEARNRKCQQALAELESVLSHLRDFFARTLVPQVLILLGGNALSPKEFYELDLSRLAPFGVDQGLNTAACLRRLFRAIFLADPFSELQTPPLMGTIVMVQGHRDCGEDWFQPKLNYRVPSRGHKLTVTLSCGRPSVPAMASEDYIWFQAPVTLKGFHE"
  RESULT VALUE: "soluble"
